protocol summary: NCI Yeast Anticancer Drug Screen. Data for the rad50 strain (AID 155);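 also: 0% = growth of vehicle-only cultures of the same strain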
test parameters: S. cerevisiae rad50 strain growth inhibition; at 50.0 µM (retest, dose inferred, filed as 5.0)
Procedure: Growth inhibition of yeast strains with defined genetic alterations is measured as a screen for potential anti-cancer activity. Selected strains with alterations in DNA damage repair or cell cycle control were exposed to compounds and growth inhibition was measured relative to vehicle treated controls. The strain used in this assay is rad50
The panel holds about 79,000 compounds, 15% with a hit somewhere; the sample as a whole holds those more often. Calls of active or inactive are those of the source. Rule as the data show it: active = growth inhibition above about 70%; inactive = the rest.
Just give me one of these, please: 1.0 = active, 0.0 = inactive

Past entries and their recorded results:
compound	cat
CC(C)c1cc(O)c(C(C)(C)C)cc1Cl	0.0
C#Cc1cccc(N2C(=O)CCC2=O)c1	0.0
CC(C)(CCCCC(C)(C)NCC1COc2ccccc2O1)NCC1COc2ccccc2O1 (centres undefined)	1.0
O=C(Nc1ccc([N+](=O)[O-])cc1[N+](=O)[O-])C(=O)C(C(=O)c1ccc(Cl)c(Cl)c1)C1OC(=O)c2ccccc21 (centres undefined)	0.0

QUERY: Test call for this compound, please: COc1cccc2c1[n+]([O-])c1cccc(O)c1[n+]2[O-]
RESULT: 1.0

QUERY: Test call for this compound, please: CN(C)C(=O)Nc1ccc(Cc2ccc(NC(=O)N(C)C)cc2)cc1
RESULT: 0.0

QUERY: Test call for this compound, please: c1ccc(-c2cc(CN3CCOCC3)c(-c3ccccc3)o2)cc1
RESULT: 1.0

QUERY: Test call for this compound, please: [O-][n+]1c(-c2ccccc2)c(Cl)c(-c2ccccc2)n1O
RESULT: 1.0

QUERY: Test call for this compound, please: Cc1ccc(S(=O)(=O)Nc2ccc(C)cc2C)cc1
RESULT: 1.0

QUERY: Test call for this compound, please: N#CC(C#N)=c1c2nsnc2c(=C(C#N)C#N)c2nsnc12
RESULT: 1.0

QUERY: Test call for this compound, please: Cc1ccccc1Oc1ccccc1N
RESULT: 0.0

QUERY: Test call for this compound, please: CN(C)CCOc1cc2c(c3ccccc13)-c1ccccc1C2O (centres undefined)
RESULT: 1.0

QUERY: Test call for this compound, please: CC1(c2ccc(Cl)cc2)OC(=O)C(=Cc2ccc([N+](=O)[O-])s2)C(=O)O1 (centres undefined)
RESULT: 1.0

QUERY: Test call for this compound, please: COc1ccccc1C1(c2ccccc2OC)OC(=O)c2ccccc21
RESULT: 0.0

QUERY: Test call for this compound, please: CCCCC/C(=C/C=C/c1ccc(Cl)cc1)CN(C)C
RESULT: 1.0

QUERY: Test call for this compound, please: CCCCC(CSC#N)SC#N (centres undefined)
RESULT: 1.0

QUERY: Test call for this compound, please: COc1cc(C(c2ccccc2)c2ccccc2)c2ccccc2c1O
RESULT: 0.0

QUERY: Test call for this compound, please: CCN(CC)CCNc1c(OC)cc(C)c2sc3ccccc3c(=O)c12
RESULT: 1.0

QUERY: Test call for this compound, please: Cc1c(N=Nc2ccc(Br)cc2)c(-c2ccccc2)nn1C(=S)S
RESULT: 0.0

QUERY: Test call for this compound, please: O=C1C(=O)C(CCCO)(CCCO)CCCCCCCCC1(CCCO)CCCO
RESULT: 0.0

QUERY: Test call for this compound, please: O=C(O)CCC(=O)NNc1ccccc1
RESULT: 0.0

QUERY: Test call for this compound, please: CN(C)C(=O)c1ccccc1SC(=S)NCc1ccccc1
RESULT: 1.0

QUERY: Test call for this compound, please: Brc1ccc(-c2c3ccccc3cc3c2ccc2ccccc23)cc1
RESULT: 0.0

QUERY: Test call for this compound, please: Clc1cc2n[nH]nc2c(Cl)c1Cl
RESULT: 0.0
